Every entry's value here was drawn from the supplement of paper PMC10065799.

Biological target: FGFR1 (UniProt P11362)
Sequence (P11362 whole entry, looked up): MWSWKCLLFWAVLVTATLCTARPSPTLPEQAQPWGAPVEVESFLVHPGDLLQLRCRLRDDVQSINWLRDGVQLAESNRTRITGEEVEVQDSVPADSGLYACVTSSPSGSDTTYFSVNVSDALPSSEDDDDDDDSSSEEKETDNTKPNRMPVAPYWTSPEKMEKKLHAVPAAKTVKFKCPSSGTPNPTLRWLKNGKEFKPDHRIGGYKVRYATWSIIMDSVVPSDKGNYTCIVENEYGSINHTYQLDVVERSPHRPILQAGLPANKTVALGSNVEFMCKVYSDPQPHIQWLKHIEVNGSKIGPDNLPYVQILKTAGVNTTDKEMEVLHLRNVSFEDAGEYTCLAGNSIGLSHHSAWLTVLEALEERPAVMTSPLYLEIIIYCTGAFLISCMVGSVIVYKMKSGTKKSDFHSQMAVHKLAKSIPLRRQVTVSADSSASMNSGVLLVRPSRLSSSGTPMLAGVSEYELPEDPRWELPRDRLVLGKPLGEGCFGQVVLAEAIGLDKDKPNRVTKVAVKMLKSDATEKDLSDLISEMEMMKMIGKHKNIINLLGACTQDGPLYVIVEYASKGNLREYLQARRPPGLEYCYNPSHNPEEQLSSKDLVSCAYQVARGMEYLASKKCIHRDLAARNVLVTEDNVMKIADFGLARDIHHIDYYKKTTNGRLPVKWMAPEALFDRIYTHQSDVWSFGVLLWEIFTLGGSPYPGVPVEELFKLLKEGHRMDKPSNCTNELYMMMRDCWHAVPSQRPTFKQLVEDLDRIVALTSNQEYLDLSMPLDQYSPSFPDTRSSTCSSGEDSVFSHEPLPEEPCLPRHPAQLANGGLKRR
Assay: phosphorylation enrichment, bacterial display (enrichment ratio); higher = better substrate or ligand; peptides without Tyr show the background
Entries and their phosphorylation enrichment values follow.

SEQ TEXT | phosphorylation enrichment
AQVDTYCRHNF [HLA-DRB1_Y107_A103Q_YF] | 0.668
HSFNSYTFPRL [PAK5_Y316_YF] | 0.59
YSTPPYLLEAA [BRIP1_Y921_S919P] | 1.16
RESYKYLPSSL [CXXC1_Y218_F219L] | 1.21
SNNYIYTTLGV [FAM83B_Y639_K640T] | 6.21
KHASTYREAAT [DEAF1_Y483] | 0.339
TKQLTYEEQFL [PIK3C3_Y310_D314Y_YF] | 0.497
ILGRFYERGSI [PAX5_Y73_T75R_YF] | 0.413
SEASYYKSLNL [NGEF_Y289] | 1.29
TEVRRYVLPLN [RPE65_Y368_P363T] | 0.482
HRNGMYGLHQD [SGSH_Y89_Q85R] | 0.485
LNERHYGALIG [BPGM_Y92] | 0.42

====

Biological target: FGFR1 (UniProt P11362)
Assay: phosphorylation enrichment, bacterial display (enrichment ratio); higher = better substrate or ligand; peptides without Tyr show the background
Use YES when the recorded phosphorylation enrichment is no lower than 0.5; use NO when it is lower.

SEQ TEXT | QUALITATIVE LABEL
GTYEDYVEGLR [MYL6_Y89] | YES
RPPFTYATLIR [FOXP3_Y342] | YES
RLQEGYDHSYY [ESD_Y258] | YES
VLTSTYRGGGG [HBA1_Y141_K140T] | NO
TLSGTYQFIIA [FOXL2_Y81_I80T_YF] | YES
CSPLLYKVIMS [OR8D4_Y132_R133K] | YES
GYQPEYGQPAG [SYP_Y278_D277E] | NO
TFWKKYRTFWK [CCDC70_Y125] | NO
RGEEPYTKKAL [TTC21B_Y160_K157E] | YES
EGVPLYESATT [DCC_Y809] | NO
HSGIYYKPESL [L2HGDH_Y103] | YES
LPKVSCVKAID [GLRA1_Y307_Y307C] | YES
AEKPKYQINNI [TJP1_Y1602] | NO
EVVGRYSVHNA [MLH1_Y183] | NO
ANKNVYEVEPT [MEGF10_Y1075_R1072K] | NO
SVVVPYKPPEV [TP53_Y220_E221K] | NO
EAEPYYCSLRD [NPHS1_Y1139_R1140C] | YES
DLQDENDFKCK [STAT1_Y170_Y170N] | YES
TENAGYFFQVS | YES
SVVVPYEPSEV [TP53_Y220_P223S] | YES
GYCSWYRGWAP [TIMP3_Y195] | YES
SRGLAYPARPA [LEMD2_Y122] | NO
GMTLSYLFWEP [NDUFS8_Y74_R77W] | YES
CQAHGYFCQLI [STK11_Y156] | NO
SPYAVYLFFTF [RPGRIP1_Y826_R827L] | NO
QGCSIYKDFFR [PLA2G2D_Y82_YF] | YES
TNYRLYLRSLE [MTM1_Y71] | YES
FGIAQYCCRMG [LRRK2_Y2023_YF] | YES
TKFRNYLIPNG [CYP2C8_Y379_K383N] | NO
ATFRGYDSDNP [MMUT_Y146_H143Y_YF] | YES
APGNAYGDAGY [SYP_Y250_D248N] | NO
GREEFYVHFVG [KAT8_Y90_YF] | YES
EFGEVYKGTLK [EPHA2_Y628_M631T] | NO
WGLRSYFETSK [MAGED2_Y448_YF] | YES
IKKLIYVFLVI [JAGN1_Y42_H44Y_YF] | YES
KGERGYPGTPG [COL4A1_Y348] | NO
CEAMEYQESKQ [BTK_Y511_L512Q] | YES

====

Tested on: c-Abl (mouse)
Assay: phosphorylation enrichment, bacterial display (enrichment ratio); higher = better substrate or ligand; peptides without Tyr show the background
Form field: phosphorylation enrichment (one value per entry).

SEQ TEXT | ASSAY SYSTEM | phosphorylation enrichment
GFGGGYGGVLT [KRT19_Y65_A60G_YF] | c-Abl (mouse) | 0.493
KKHIPYSEHKS [CSNK1G2_Y206_R207S] | c-Abl (mouse) | 1.53
DVMDFYKTLRG [NR3C1_Y30] | c-Abl (mouse) | 0.571
KHASTYREAAT [DEAF1_Y483] | c-Abl (mouse) | 0.52
SSDKVCAHQMV [MLH1_Y379_Y379C] | c-Abl (mouse) | 0.587
IYHLSYHHNCE [PDE6B_Y227_L228H] | c-Abl (mouse) | 2.09
DPYHVYIKNRV [KCNE3_Y95] | c-Abl (mouse) | 0.832
TRSYKCLLLSM [NF1_Y491_Y491C] | c-Abl (mouse) | 0.637
EAEPFYCSLRD [NPHS1_Y1139_R1140C_YF] | c-Abl (mouse) | 0.878
KNNDGNIDYAE [MCFD2_Y135_Y135N] | c-Abl (mouse) | 0.62
KMKGDYFRSLA [YWHAG_Y130_Y133S_YF] | c-Abl (mouse) | 0.521
AASTDYFKRGD [PDHA1_Y242_YF] | c-Abl (mouse) | 0.421
EASEQYLTKAS [NRCAM_Y739] | c-Abl (mouse) | 0.798
CTLTHYKSAVK [ASNS_Y555_R550C] | c-Abl (mouse) | 0.529
YVPSFYHAFSG [ACTN4_Y265_S262P] | c-Abl (mouse) | 1.06
PDGREYIYVDP [PDGFRA_Y572_H570R] | c-Abl (mouse) | 1.93
GMIQAYSSSQR [DES_Y5_S2I] | c-Abl (mouse) | 0.42
KWELRYMHSRV [ABCD1_Y281_G277W] | c-Abl (mouse) | 0.759
AGREIYESEKC [TTN_Y4424_D4427E] | c-Abl (mouse) | 0.708
DPEGAYTTRGG [EPHA3_Y779_A777G] | c-Abl (mouse) | 0.789
IGSHAYGDQFR [IDH1_Y135_R132S_YF] | c-Abl (mouse) | 0.363
QYKGKYLAKHN [CASK_Y712_D710G] | c-Abl (mouse) | 0.934
RIAFQYGDTDL [MYBPC3_Y340_V342D] | c-Abl (mouse) | 0.735
RRKRAYVEIEY [MAK16_Y282_Q277R] | c-Abl (mouse) | 1.04
PIGRKYKKVRF [F8_Y442_R437P] | c-Abl (mouse) | 0.661
YIATQYSLCPR [LBR_Y166_R169C] | c-Abl (mouse) | 0.716
AEMKRYAESSS [RAI14_Y869] | c-Abl (mouse) | 0.483
TLSGTYQFIIA [FOXL2_Y81_I80T_YF] | c-Abl (mouse) | 0.611
TIMTNYNPNFC [ALK_Y1092_D1091N_YF] | c-Abl (mouse) | 0.716
QKMFDYLKEKK [RYR2_Y3780_L3778F] | c-Abl (mouse) | 0.763
HSGIYYKPESL [L2HGDH_Y103] | c-Abl (mouse) | 27.1
NPEACYQRLKK [TK2_Y190_T188A] | c-Abl (mouse) | 0.558
EGVPLYESATT [DCC_Y809] | c-Abl (mouse) | 0.831
YSNKLHYQLEQ [PDPR_Y109_Y109H] | c-Abl (mouse) | 0.495
WTAHSYRMGST [ARHGEF7_Y785] | c-Abl (mouse) | 0.437

====

The sequences listed here are annotated with their SH2 binding enrichment.
Biological target: c-Src SH2
Assay: SH2 binding enrichment of the phosphorylated peptide, bacterial display (enrichment ratio); higher = better substrate or ligand; peptides without Tyr show the background

SEQ TEXT | SH2 binding enrichment
TEVRRYVLPLN [RPE65_Y368_P363T] | 0.829
IIWDSYTTNKV [GNB1_Y85] | 0.543
KNKNRYKNVLP [PTPN11_Y279_I282V] | 0.803
MDDDQYALLTA [EFCAB6_Y675_T680A] | 0.689
PEIIAYQPFGK [PRKCG_Y529_YF] | 0.664
DLAAQYTTVGH [SGSH_Y240_R245H] | 3.24
GMKIVYVYVKK [DNAI2_Y5_E2K] | 0.646

====

Biological target: c-Src SH2;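 also: peptide library displayed on the E. coli surface as eCPX fusions, selected cells deep-sequenced, score is each peptide's frequency after selection divided by its frequency in the input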
Assay: SH2 binding enrichment of the phosphorylated peptide, bacterial display (enrichment ratio); higher = better substrate or ligand; peptides without Tyr show the background
# SH2 binding enrichment >= 0.5 gives true, anything below gives false

SEQ TEXT | QUALITATIVE LABEL
PSRKDYETFQS [CTNND2_Y1154_P1159S_YF] | false
PPQFSYGLQTQ [SRA1_Y35] | false
ALEKTYNTYRS [B4GALNT2_Y538] | false
VRFMADTDETF [F8_Y450_Y450D] | false
YVPSFYHAFSG [ACTN4_Y265_S262P] | true
RVFIKYLPEWT [PSEN1_Y240_L235R] | true
MCTVDYLLRLQ [RYR1_Y3921_I3916M] | true
AAFNKYDQERF [CDC73_Y293_R292K_YF] | false
SWDKRYCEAGF [ITGA2B_Y197] | true
ALRHYYKLNII [ETV6_Y402] | true
VCHELYNTIRD [PBRM1_Y54] | true
PVPKTYDMLKA [PKP2_Y108] | true
TDISLYPSGGT [TENM4_Y399_V396I] | false
ADFPDCKFRPR [SOX11_Y116_Y116C_YF] | true
LQTYHYHGHSM [PDHA1_Y289_R288H] | true
KMKGDYFRSLA [YWHAG_Y130_Y133S_YF] | true
NTGYYYDLYGG [PTPN11_Y63_D61Y] | true
EYRFIYMAVQH [PTPN11_Y515_Q510E] | true
EEALFYLTRVE [SET_Y119_H118Y_YF] | false
AGTILYHAHLG [ASS1_Y291_D296G] | false
FVTCTYSPALN [TP53_Y126_S121F] | true
QPGTDYKIYLY [FN1_Y1970] | false
KHASTYREAAT [DEAF1_Y483] | true
YQGGTYSKACT [FGG_Y380_S384C] | true
GFGGGYGGVLT [KRT19_Y65_A60G_YF] | false
IGSHAYGDQFR [IDH1_Y135_R132S_YF] | false
KRFAFYRDSPR [FOXE3_Y108_E103K] | true
YIATQYSLCPR [LBR_Y166_R169C] | true
AAAAVYTFLPD [MYORG_Y36_M35V] | true
FGFPGYQSKHF [TIMP3_Y177_YF] | true
LNECHYGALIG [BPGM_Y92_R90C] | false
RVDRDYVLKST [HTATIP2_Y111_A116T] | false
AQVDTYCRHNF [HLA-DRB1_Y107_A103Q_YF] | true
QGIIIYKAAYF [SLC25A4_Y187_R188K] | false
EASEQYLTKAS [NRCAM_Y739] | false
NAPNSYGRRPT [CDKN2A_Y44_I49T] | true
